- Assay name: Half life in dog at 0.4 mg/kg, iv
- Format: ADME, organism-based, Canis lupus familiaris
- Set-up: dose 0.4 mg/kg, route intravenous
- Condition details: in vivo
Measured endpoint: half-life (min)
A number alone suffices; assume min.

Need half-life, item `CN(C)C(=O)N1CC(c2cc(F)ccc2F)=C[C@H]1c1cccc(OP(=O)(O)O)c1`
15

Need half-life, item `CN(C)C(=O)N1CC(c2cc(F)ccc2F)=C[C@H]1c1cccc(O)c1`
90

Need half-life, item `CC(C)(C)[C@H](NC(=O)OCCO)C(=O)N1CC(c2cc(F)ccc2F)=C[C@H]1c1ccccc1`
168

###

- Measured on: Kinesin-like protein KIF11 (Homo sapiens, UniProt P52732)
- Sequence (P52732 whole entry): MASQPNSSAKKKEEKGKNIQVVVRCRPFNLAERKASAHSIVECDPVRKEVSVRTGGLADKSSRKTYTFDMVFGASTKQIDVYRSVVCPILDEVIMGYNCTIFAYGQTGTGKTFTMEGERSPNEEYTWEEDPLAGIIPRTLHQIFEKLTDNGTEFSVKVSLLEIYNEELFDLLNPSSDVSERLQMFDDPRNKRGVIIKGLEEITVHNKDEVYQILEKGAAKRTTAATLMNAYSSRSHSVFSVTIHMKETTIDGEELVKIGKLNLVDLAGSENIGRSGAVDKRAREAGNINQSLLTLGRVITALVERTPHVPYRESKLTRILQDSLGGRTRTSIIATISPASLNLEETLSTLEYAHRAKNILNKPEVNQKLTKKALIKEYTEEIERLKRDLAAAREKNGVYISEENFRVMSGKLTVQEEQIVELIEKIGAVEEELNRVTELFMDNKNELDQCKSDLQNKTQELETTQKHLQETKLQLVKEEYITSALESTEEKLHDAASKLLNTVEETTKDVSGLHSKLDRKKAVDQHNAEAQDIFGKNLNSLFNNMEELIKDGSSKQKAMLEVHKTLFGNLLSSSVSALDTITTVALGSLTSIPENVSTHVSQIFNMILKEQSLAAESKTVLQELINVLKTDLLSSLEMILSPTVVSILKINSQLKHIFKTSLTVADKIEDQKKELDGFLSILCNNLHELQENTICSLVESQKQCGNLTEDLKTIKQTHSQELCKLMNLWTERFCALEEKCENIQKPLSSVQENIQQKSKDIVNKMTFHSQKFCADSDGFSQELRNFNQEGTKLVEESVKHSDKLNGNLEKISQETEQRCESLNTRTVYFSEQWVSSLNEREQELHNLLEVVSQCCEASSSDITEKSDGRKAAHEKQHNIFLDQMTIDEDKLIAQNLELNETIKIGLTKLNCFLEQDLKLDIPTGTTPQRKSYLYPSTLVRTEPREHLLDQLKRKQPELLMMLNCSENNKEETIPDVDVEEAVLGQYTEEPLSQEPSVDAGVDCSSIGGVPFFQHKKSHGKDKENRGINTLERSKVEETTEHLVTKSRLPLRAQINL
Measured endpoint: IC50 (nM)
A number alone suffices; assume nM.

Need IC50, item `CN(C)C(=O)N1CC(c2cc(F)ccc2F)=C[C@H]1c1cccc(O)c1`
7
